Species: Mus musculus
Experiment: Number of tumor-free survivors in a group of five mice
Format: functional
Measured Tumor-free, listed per entry for reference.
METRIC NAME: Tumor-free (survivors/total)

1. CCOc1nc(C(Cl)(Cl)Cl)c(Cl)c(OCC)c1Cl	4
2. CCCCOc1nc(C(Cl)(Cl)Cl)c(Cl)c(O)c1Cl	0
3. COc1c(Cl)c(O)nc(C(Cl)(Cl)Cl)c1Cl	0
4. CCOc1nc(C(Cl)(Cl)Cl)c(Cl)c(OC(C)=O)c1Cl	0
5. COc1nc(C(Cl)(Cl)Cl)c(Cl)c(O)c1Cl	3
6. CC(C)Oc1nc(C(Cl)(Cl)Cl)c(Cl)c(OC(C)C)c1Cl	0
7. CCCCOc1c(Cl)c(OC)nc(C(Cl)(Cl)Cl)c1Cl	1
8. Oc1c(Cl)c(Cl)nc(C(Cl)(Cl)Cl)c1Cl	0
9. COc1nc(C(Cl)(Cl)Cl)c(Cl)c(Cl)c1Cl	0
10. CCOc1nc(C(Cl)(Cl)Cl)c(Cl)c(OC)c1Cl	2
11. COc1c(Cl)c(Cl)nc(C(Cl)(Cl)Cl)c1Cl	0
12. COc1c(Cl)c(OCC(F)(F)F)nc(C(Cl)(Cl)Cl)c1Cl	0
13. COc1c(Cl)c(C(Cl)(Cl)Cl)nc(C(Cl)(Cl)Cl)c1Cl	0
14. COc1nc(C(Cl)(Cl)Cl)c(Cl)c(OC(C)=O)c1Cl	5
15. CC(=O)Oc1nc(C(Cl)(Cl)Cl)c(Cl)c(OC(C)=O)c1Cl	0

Reference source for all entries: ChEMBL document CHEMBL1135732
